Test system: human V1a receptor (Homo sapiens)
Assay details: Cellular in vitro assay for determining vasopressin receptor activity, V1a receptor cell line (photoprotein luminescence)
Assay setup: CHO cell line transfected with the human V1a receptor; agonist [Arg8]-vasopressin at EC50 concentration; read-out: IC50 hV1a
Readings of IC50 for the listed compounds
Please report the result as a number followed by the unit.

COCCNc1nc(Cn2nc(-c3ccc(Cl)cc3)n(C[C@H](O)C(F)(F)F)c2=O)nn1-c1cccc(F)c1; 1.35 nM
NC(=O)C1CN(c2nc(Cn3nc(-c4ccc(Cl)cc4)n(C[C@H](O)C(F)(F)F)c3=O)nn2-c2ccccc2Cl)CCN1 (mixture of isomers); 0.37 nM

Now let's try a different one.
## Input Checklist item: IC50 tested on human V1a receptor (Homo sapiens), entry O=c1n(Cc2nc(N3CCNC(C(F)(F)F)C3)n(CCC(F)(F)F)n2)nc(-c2ccc(Cl)cc2)n1C[C@H](O)C(F)(F)F (single isomer, unassigned) [Example 108] , value?
## Output 10.7 nM

* * *

Test system: human V1a receptor (Homo sapiens, UniProt P37288)
Sequence (P37288 whole entry): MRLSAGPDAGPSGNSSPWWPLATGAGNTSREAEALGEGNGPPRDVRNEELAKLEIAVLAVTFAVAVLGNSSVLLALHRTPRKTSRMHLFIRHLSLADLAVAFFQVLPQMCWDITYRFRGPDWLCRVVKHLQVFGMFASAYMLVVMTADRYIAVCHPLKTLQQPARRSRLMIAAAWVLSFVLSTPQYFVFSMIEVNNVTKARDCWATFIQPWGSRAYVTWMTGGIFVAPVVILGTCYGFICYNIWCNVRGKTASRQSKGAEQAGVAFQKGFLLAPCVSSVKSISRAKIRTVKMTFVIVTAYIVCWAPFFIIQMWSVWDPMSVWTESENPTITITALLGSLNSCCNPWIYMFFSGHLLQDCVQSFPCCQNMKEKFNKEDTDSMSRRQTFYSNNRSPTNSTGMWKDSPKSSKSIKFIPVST
Assay details: Cellular in vitro assay for determining vasopressin receptor activity, V1a receptor cell line (photoprotein luminescence)
Format: cell-based
Assay setup: selectivity ratio of the cellular IC50 values
Readings of ratio IC50 hV2/hV1a for the listed compounds
// print number alone

NC(=O)[C@H]1CCCN1c1nc(Cn2nc(-c3ccc(Cl)cc3)n(C[C@H](O)C(F)(F)F)c2=O)nn1-c1ccccc1Cl [Example 59]; 17.2
O=c1n(Cc2nc(N3CCS(=O)(=O)CC3)n(-c3ncccc3Cl)n2)nc(-c2ccc(Cl)cc2)n1C[C@H](O)C(F)(F)F [Example 96]; 407.5

Now let's try a different one.
## Input Look at this compound and give its reported ratio IC50 hV2/hV1a. NC(=O)[C@@H]1CC(F)(F)CN1c1nc(Cn2nc(-c3ccc(Cl)cc3)n(C[C@H](O)C(F)(F)F)c2=O)nn1-c1ccccc1Cl [Example 9]
## Output 18.8

* * *

Test system: human V1a receptor (Homo sapiens, UniProt P37288)
Assay details: Cellular in vitro assay for determining vasopressin receptor activity, V1a receptor cell line (photoprotein luminescence)
Type: cell-based
Assay setup: selectivity ratio of the cellular IC50 values
Sorting guide: entries reporting ratio IC50 hV2/hV1a beneath 10 go in the Yes pile, the rest go in the No pile.

Examples with answers:
O=C1CC[C@H](CNc2nc(Cn3nc(-c4ccc(Cl)cc4)n(C[C@H](O)C(F)(F)F)c3=O)nn2CCC(F)(F)F)N1; No
O=C1CN(c2nc(Cn3nc(-c4ccc(Cl)cc4)n(C[C@H](O)C(F)(F)F)c3=O)nn2CCC(F)(F)F)CCN1; Yes
O=c1n(Cc2nc(N3CCNCC3)n(-c3ccccc3Cl)n2)nc(-c2ccc(Cl)cc2)n1C[C@H](O)C(F)(F)F; No
O=C1CCC(CNc2nc(Cn3nc(-c4ccc(Cl)cc4)n(C[C@H](O)C(F)(F)F)c3=O)nn2-c2ccccc2Cl)N1 (mixture of isomers) [Example 63]; No
NC(CNc1nc(Cn2nc(-c3ccc(Cl)cc3)n(C[C@H](O)C(F)(F)F)c2=O)nn1-c1ccccc1Cl)C(F)(F)F (single isomer, unassigned) [Example 8]; Yes

## Input Identify whether the compound O=c1n(Cc2nc(N3CCOCC3)n(-c3ccccc3Cl)n2)nc(-c2ccc(Cl)cc2)n1C[C@H](O)C(F)(F)F records ratio IC50 hV2/hV1a below 10.
## Output No

* * *

Test system: human V2 receptor (Homo sapiens)
Sequence (P30518 whole entry): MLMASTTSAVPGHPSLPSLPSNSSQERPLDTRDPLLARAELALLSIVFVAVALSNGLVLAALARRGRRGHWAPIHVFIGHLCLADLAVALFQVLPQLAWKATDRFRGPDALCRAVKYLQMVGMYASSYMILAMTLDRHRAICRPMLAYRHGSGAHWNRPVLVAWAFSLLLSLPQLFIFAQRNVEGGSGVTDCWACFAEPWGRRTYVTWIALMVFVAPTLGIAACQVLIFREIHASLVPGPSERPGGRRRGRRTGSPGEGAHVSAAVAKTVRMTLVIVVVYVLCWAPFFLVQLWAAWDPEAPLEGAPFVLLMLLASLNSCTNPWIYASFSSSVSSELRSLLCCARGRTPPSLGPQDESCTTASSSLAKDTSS
Assay details: Cellular in vitro assay for determining vasopressin receptor activity, V2 receptor cell line (CRE-luciferase)
Assay setup: CHO cell line transfected with the human V2 receptor; agonist [Arg8]-vasopressin at EC50 concentration; read-out: IC50 hV2
Assay metric: pIC50
Friendly reminder that pIC50 comes from taking -log10 of the concentration in mol/L.

The cases that follow already have their pIC50 on record.
O=C1CCC(Nc2nc(Cn3nc(-c4ccc(Cl)cc4)n(C[C@H](O)C(F)(F)F)c3=O)nn2-c2ccccc2Cl)CN1 (single isomer, unassigned) [Example 61]; 8.00
O=C1CCC(Nc2nc(Cn3nc(-c4ccc(Cl)cc4)n(C[C@H](O)C(F)(F)F)c3=O)nn2-c2ccccc2Cl)CN1 (single isomer, unassigned) [Example 62]; 8.02
O=c1n(Cc2nc(N3CCC(O)(C(F)(F)F)C3)n(-c3ccccc3Cl)n2)nc(-c2ccc(Cl)cc2)n1C[C@H](O)C(F)(F)F (mixture of isomers) [Example 13]; 8.65

## Input Checklist item: pIC50 tested on human V2 receptor (Homo sapiens), entry CC1(O)CCN(c2nc(Cn3nc(-c4ccc(Cl)cc4)n(C[C@H](O)C(F)(F)F)c3=O)nn2-c2ccccc2Cl)C1 (single isomer, unassigned) [Example 30] , value?
## Output 8.57

## Input Another: C[C@@H](O)CNc1nc(Cn2nc(-c3ccc(Cl)cc3)n(C[C@H](O)C(F)(F)F)c2=O)nn1-c1ccccc1Cl [Example 49]
## Output 8.71

## Input Another: O=C1CN(c2nc(Cn3nc(-c4ccc(Cl)cc4)n(C[C@H](O)C(F)(F)F)c3=O)nn2-c2ccccc2F)CCN1 [Example 89]
## Output 7.09

## Input Another: NC(=O)[C@H]1CCN(c2nc(Cn3nc(-c4ccc(Cl)cc4)n(C[C@H](O)C(F)(F)F)c3=O)nn2-c2ccccc2Cl)C1 [Example 57]
## Output 8.31

## Input Another: O=C1CC[C@H](CNc2nc(Cn3nc(-c4ccc(Cl)cc4)n(C[C@H](O)C(F)(F)F)c3=O)nn2CCC(F)(F)F)N1 [Example 101]
## Output 6.29

## Input Another: O=C1NCC(CNc2nc(Cn3nc(-c4ccc(Cl)cc4)n(C[C@H](O)C(F)(F)F)c3=O)nn2-c2ccccc2Cl)O1 (mixture of isomers) [Example 12]
## Output 8.61

## Input Another: CC1(C)CN(c2nc(Cn3nc(-c4ccc(Cl)cc4)n(C[C@H](O)C(F)(F)F)c3=O)nn2-c2ncccc2Cl)CCN1 [Example 122]
## Output 5.81

## Input Another: CC(=O)N1CCN(c2nc(Cn3nc(-c4ccc(Cl)cc4)n(C[C@H](O)C(F)(F)F)c3=O)nn2-c2ccccc2Cl)CC1 [Example 75]
## Output 8.05

## Input Another: C[C@H](O)CNc1nc(Cn2nc(-c3ccc(Cl)cc3)n(C[C@H](O)C(F)(F)F)c2=O)nn1-c1ccccc1Cl [Example 50]
## Output 8.68

* * *

Test system: human V1a receptor (Homo sapiens)
Assay details: Cellular in vitro assay for determining vasopressin receptor activity, V1a receptor cell line (photoprotein luminescence)
Assay setup: CHO cell line transfected with the human V1a receptor; agonist [Arg8]-vasopressin at EC50 concentration; read-out: IC50 hV1a
Sorting guide: entries reporting IC50 beneath 700 pM go in the 1.0 pile, the rest go in the 0.0 pile.

Examples with answers:
O=c1n(Cc2nc(N3CCOCC3)n(-c3cccc(F)c3)n2)nc(-c2ccc(Cl)cc2)n1C[C@H](O)C(F)(F)F; 0.0
NC(=O)[C@H]1CC(F)(F)CN1c1nc(Cn2nc(-c3ccc(Cl)cc3)n(C[C@H](O)C(F)(F)F)c2=O)nn1-c1ccccc1Cl; 1.0
CC(N)(CNc1nc(Cn2nc(-c3ccc(Cl)cc3)n(C[C@H](O)C(F)(F)F)c2=O)nn1-c1ccccc1Cl)C(F)(F)F (mixture of isomers); 1.0

## Input Identify whether the molecule O=c1n(Cc2nc(N3CC(F)(F)C3)n(-c3ccccc3Cl)n2)nc(-c2ccc(Cl)cc2)n1C[C@H](O)C(F)(F)F records IC50 below 700 pM.
## Output 0.0

## Input Another: COC1CCN(c2nc(Cn3nc(-c4ccc(Cl)cc4)n(C[C@H](O)C(F)(F)F)c3=O)nn2-c2ccccc2Cl)C1 (mixture of isomers)
## Output 1.0

* * *

Readings of IC50 for the listed compounds
Test system: human V1a receptor (Homo sapiens, UniProt P37288)
Assay details: Cellular in vitro assay for determining vasopressin receptor activity, V1a receptor cell line (photoprotein luminescence)
Assay setup: CHO cell line transfected with the human V1a receptor; agonist [Arg8]-vasopressin at EC50 concentration; read-out: IC50 hV1a
Answer format: numeric, nM implied, no suffix.

## Input Look at this compound and give its reported IC50. CC(C)(C)OC(=O)N1CCCC(O)(CNc2nc(Cn3nc(-c4ccc(Cl)cc4)n(C[C@H](O)C(F)(F)F)c3=O)nn2-c2ccccc2Cl)CC1 (mixture of isomers) [Example 19]
## Output 2.55

## Input Another: NCCNc1nc(Cn2nc(-c3ccc(Cl)cc3)n(C[C@H](O)C(F)(F)F)c2=O)nn1-c1ccccc1Cl [Example 70]
## Output 0.9

## Input Another: COCCNc1nc(Cn2nc(-c3ccc(Cl)cc3)n(C[C@H](O)C(F)(F)F)c2=O)nn1-c1ccccc1Cl [Example 79]
## Output 0.32

## Input Another: O=C1CCC(Nc2nc(Cn3nc(-c4ccc(Cl)cc4)n(C[C@H](O)C(F)(F)F)c3=O)nn2-c2ccccc2Cl)CN1 (single isomer, unassigned) [Example 62]
## Output 1.3

## Input Another: NC(=O)[C@H]1CCCN1c1nc(Cn2nc(-c3ccc(Cl)cc3)n(C[C@H](O)C(F)(F)F)c2=O)nn1-c1ccccc1Cl [Example 59]
## Output 2.3

## Input Another: O=c1n(Cc2nc(N3CC4(COC4)C3)n(-c3ccccc3Cl)n2)nc(-c2ccc(Cl)cc2)n1C[C@H](O)C(F)(F)F [Example 86]
## Output 0.98
